Value source: patent US20260297095A1

Reported inhibition at 0.01 µM values for the following compounds.
Target: YES1 kinase (Homo sapiens)
Test: YES1 kinase inhibition, ADP Glo assay (Promega)
Assay type: biochemical
Settings: compound 10 nM; read-out: YES1 enzyme, % inhibition, 10 nM
Give the value, in units of %, as a plain number.

> print(dat)
                                   compound  experimental.value
1  COc1cc(-c2c(F)c(N3CCC(N)CC3)n3ncnc(N)c23)ccc1NC(=O)OC(C)(C)C [Example 127]                  67
2  COc1cc(-c2cc(N3CCC4NCCC4C3)n3ncnc(N)c23)ccc1NC(=O)OC(C)(C)C (centres unmarked) [Example 25]                  28
3  COc1cc(-c2cc(N3CCC(C)(N)CC3)n3ncnc(N)c23)ccc1NC(=O)OC(C)(C)C [Example 45]                  80
4  COc1cc(-c2c(C)c(N3CCC(N)CC3)n3ncnc(N)c23)ccc1NC(=O)OC(C)(C)C [Example 74]                  66

Enquiry: Let me know recorded inhibition at 0.01 µM for COc1cc(-c2cc(-c3ccc(N(C)C)cc3)n3ncnc(N)c23)ccc1NC(=O)OC(C)(C)C [Example 1] , thanks.
Return: 17

Enquiry: Let me know recorded inhibition at 0.01 µM for COc1cc(-c2cc(N3CCC4C(CCN4C)C3)n3ncnc(N)c23)ccc1NC(=O)OC(C)(C)C (centres unmarked) [Example 26] , thanks.
Return: 30

* * *

Reported GI50 values for the following compounds.
Test system: KYSE-70 esophageal cancer cell line
Assay: Cell growth inhibition of KYSE-70 (Sulforhodamine B)
Assay type: cell-based
Conditions: Homo sapiens; KYSE-70, 72 hours; read-out: KYSE70 GI50

Here are 3 compounds together with their reported answers.
> print(dat)
                                   compound                    system.under.test  assay.readout  experimental.value
1  COc1cc(-c2cc(N3CCC(C(=O)O)CC3)n3ncnc(N)c23)ccc1NC(=O)OC(C)(C)C  KYSE-70 esophageal cancer cell line           GI50             > 10 µM
2  CNC1CCN(c2c(C)c(-c3ccc(NC(=O)OC(C)(C)CF)c(OC)c3)c3c(N)ncnn23)CC1  KYSE-70 esophageal cancer cell line           GI50            ≤ 0.1 µM
3  COc1cc(-c2c(C(F)(F)F)c(N3CCC(N)CC3)n3ncnc(N)c23)ccc1NC(=O)OC(C)(C)C  KYSE-70 esophageal cancer cell line           GI50         0.1 to 1 µM

Enquiry: Let me know recorded GI50 for COc1cc(-c2cc(N3CCC[C@@H](CN(C)C)C3)n3ncnc(N)c23)ccc1NC(=O)OC(C)(C)C , thanks.
Return: 1 to 10 µM

* * *

Molecular target: YES1 kinase (Homo sapiens, UniProt P07947)
Sequence (P07947 whole entry): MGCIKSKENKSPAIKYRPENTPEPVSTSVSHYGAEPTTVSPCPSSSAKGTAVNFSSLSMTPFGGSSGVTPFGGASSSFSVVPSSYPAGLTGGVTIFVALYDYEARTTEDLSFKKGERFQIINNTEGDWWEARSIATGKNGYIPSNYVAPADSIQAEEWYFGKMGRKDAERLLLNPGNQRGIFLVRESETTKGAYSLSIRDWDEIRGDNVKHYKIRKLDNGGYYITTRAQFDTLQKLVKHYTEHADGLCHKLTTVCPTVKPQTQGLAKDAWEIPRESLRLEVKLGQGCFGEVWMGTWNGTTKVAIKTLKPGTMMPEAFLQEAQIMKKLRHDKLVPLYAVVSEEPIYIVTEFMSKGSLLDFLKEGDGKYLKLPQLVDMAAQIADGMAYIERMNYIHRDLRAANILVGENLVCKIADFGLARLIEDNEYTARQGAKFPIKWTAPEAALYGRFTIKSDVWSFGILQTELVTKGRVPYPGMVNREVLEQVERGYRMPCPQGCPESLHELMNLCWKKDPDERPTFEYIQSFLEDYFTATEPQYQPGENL
Assay: YES1 kinase inhibition, ADP Glo assay (Promega)
Assay type: biochemical
Details: compound 10 nM; read-out: YES1 enzyme, % inhibition, 10 nM
Reported inhibition at 0.01 µM values for the following molecules.
Give the value, in units of %, as a plain number.

> print(dat)
                                   molecule  experimental.value
1  COc1cc(-c2cc(N3CC4CC(C3)C4N)n3ncnc(N)c23)ccc1NC(=O)OC(C)(C)C (stereo not drawn)                  14
2  COc1cc(-c2cc(-c3ccc4c(c3)oc(=O)n4C)n3ncnc(N)c23)ccc1NC(=O)OC(C)(C)C                  39
3  COc1cc(-c2cc(N3CCC4(CCN(C)C4)CC3)n3ncnc(N)c23)ccc1NC(=O)OC(C)(C)C                  60
4  COc1cc(-c2cc(N3CCC[C@@H](CN(C)C)C3)n3ncnc(N)c23)ccc1NC(=O)OC(C)(C)C                   5
5  COc1cc(-c2cc(N3CC[C@@H](N(C)C)[C@H](F)C3)n3ncnc(N)c23)ccc1NC(=O)OC(C)(C)C                  51

--- query ---
Enquiry: Give inhibition at 0.01 µM for this entry on YES1 kinase (Homo sapiens, UniProt P07947): COc1cc(-c2cc(CCN3CCC(N(C)C)CC3)n3ncnc(N)c23)ccc1NC(=O)OC(C)(C)C
Return: 65

* * *

Target: UniProt:P07947
Assay: YES1 kinase inhibition, ADP Glo assay (Promega)
Assay type: biochemical
Conditions: compound 10 nM; read-out: YES1 enzyme, % inhibition, 10 nM
Assign 1 whenever inhibition at 0.01 µM does not fall below 50%; assign 0 whenever it does.

> print(dat)
                                    molecule  group.label
 1  COc1cc(-c2cc(N3CC4(CC(N(C)C)C4)C3)n3ncnc(N)c23)ccc1NC(=O)OC(C)(C)C [Example 18]            0
 2  COc1cc(-c2cc(N3CCC(CN)CC3)n3ncnc(N)c23)ccc1NC(=O)OC(C)(C)C [Example 59]            1
 3  COc1cc(-c2cc(N3CC[C@@H](N)[C@@H](F)C3)n3ncnc(N)c23)ccc1NC(=O)OC(C)(C)C [Example 46]            1
 4  COc1cc(-c2cc(N[C@H]3CC[C@H](N(C)C)C3)n3ncnc(N)c23)ccc1NC(=O)OC(C)(C)C [Example 112]            1
 5  COc1cc(-c2cc(NCC3CCNCC3)n3ncnc(N)c23)ccc1NC(=O)OC(C)(C)C [Example 117]            0
 6  COc1cc(-c2cc(N[C@H]3C[C@H](N)C3)n3ncnc(N)c23)ccc1NC(=O)OC(C)(C)C [Example 119]            1
 7  CNCCC1CCN(c2cc(-c3ccc(NC(=O)OC(C)(C)C)c(OC)c3)c3c(N)ncnn23)CC1 [Example 108]            1
 8  CNC1CCN(c2cc(-c3ccc(NC(=O)OC(C)(C)C)c(OC)c3)c3c(N)ncnn23)CC1 [Example 44]            1
 9  Nc1ncnn2c(N3CCC(N)CC3)cc(-c3ccc(Oc4ccccc4)cc3)c12 [Example 135]            1
10  COc1cc(-c2cc(-c3ccc(N(C)C)c(F)c3)n3ncnc(N)c23)ccc1NC(=O)OC(C)(C)C [Example 4]            0

Enquiry: Item COc1cc(-c2cc(N3CC[C@H](N(C)C)C3)n3ncnc(N)c23)ccc1NC(=O)OC(C)(C)C [Example 11] with inhibition at 0.01 µM of 50% or above?
Return: 0

Enquiry: Item COc1cc(-c2cc(N3CCN(CCN(C)C)CC3)n3ncnc(N)c23)ccc1NC(=O)OC(C)(C)C [Example 28] with inhibition at 0.01 µM of 50% or above?
Return: 0

Enquiry: Item COc1cc(-c2cc(N3CCC4(CCC(=O)N4)CC3)n3ncnc(N)c23)ccc1NC(=O)OC(C)(C)C [Example 54] with inhibition at 0.01 µM of 50% or above?
Return: 0

* * *

Target: YES1 kinase (Homo sapiens, UniProt P07947)
Experiment: YES1 kinase inhibition, ADP Glo assay (Promega)
Type: biochemical
Settings: compound 100 nM; read-out: YES1 enzyme, % inhibition, 100 nM
Reported inhibition at 0.1 µM values for the following compounds.
Give the value, in units of %, as a plain number.

Here are 4 compounds together with their reported answers.
> print(dat)
                                   compound         assay.readout  unit.of.measure  experimental.value
1  COc1cc(-c2cc(N3CCC(N)C(C)(C)C3)n3ncnc(N)c23)ccc1NC(=O)OC(C)(C)C (centres unmarked) [Example 94]  inhibition at 0.1 µM                %                  78
2  CNC1CCN(CCc2cc(-c3ccc(NC(=O)OC(C)(C)C)c(OC)c3)c3c(N)ncnn23)CC1 [Example 99]  inhibition at 0.1 µM                %                  90
3  COc1cc(-c2cc(N3CC4CC3CC4N)n3ncnc(N)c23)ccc1NC(=O)OC(C)(C)C (centres unmarked) [Example 51]  inhibition at 0.1 µM                %                  90
4  COc1cc(-c2cc(N3CC[C@H](N(C)C)C3)n3ncnc(N)c23)ccc1NC(=O)OC(C)(C)C [Example 11]  inhibition at 0.1 µM                %                  44

--- query ---
Enquiry: Let me know recorded inhibition at 0.1 µM for CN[C@@H]1CCN(c2cc(-c3ccc(NC(=O)OC(C)(C)C)c(OC)c3)c3c(N)ncnn23)C[C@@H]1F [Example 87] , thanks.
Return: 80
